Measured abundance fitness, listed per entry.
B1: Tyrosine-protein kinase Lck, residues 63 to 120; numbered along this chain, P06239 (parent)
chain: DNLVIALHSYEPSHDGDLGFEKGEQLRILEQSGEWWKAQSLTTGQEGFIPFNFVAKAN

- Variants of: B1
- MEASUREMENT DESCRIPTION: abundance fitness (aPCA) (normalised: wild type 0, dead -1); higher = more abundant; growth selection in yeast, the domain comes from the species named
- COND: Homo sapiens

Sure, the documented abundance fitness for G33P is -0.544

The recorded abundance fitness for entry N52Y equals -0.311

Summary for this variant, G33S : abundance fitness is -0.166

Recorded abundance fitness (variant D1P ): -0.827

Field abundance fitness (entry S13G ) reads -0.251

Recorded result, R27G , abundance fitness: -0.881

So, G47D ? Its abundance fitness was -0.912

Given item E46L , the value recorded as its abundance fitness is -0.157
